# reported phage ELISA signal ratio; entries follow
subject-of-test: HSPA9 438-651 HSP70 (domain begin residue: 438, domain end residue: 651), P38646
Sequence (P38646 whole entry): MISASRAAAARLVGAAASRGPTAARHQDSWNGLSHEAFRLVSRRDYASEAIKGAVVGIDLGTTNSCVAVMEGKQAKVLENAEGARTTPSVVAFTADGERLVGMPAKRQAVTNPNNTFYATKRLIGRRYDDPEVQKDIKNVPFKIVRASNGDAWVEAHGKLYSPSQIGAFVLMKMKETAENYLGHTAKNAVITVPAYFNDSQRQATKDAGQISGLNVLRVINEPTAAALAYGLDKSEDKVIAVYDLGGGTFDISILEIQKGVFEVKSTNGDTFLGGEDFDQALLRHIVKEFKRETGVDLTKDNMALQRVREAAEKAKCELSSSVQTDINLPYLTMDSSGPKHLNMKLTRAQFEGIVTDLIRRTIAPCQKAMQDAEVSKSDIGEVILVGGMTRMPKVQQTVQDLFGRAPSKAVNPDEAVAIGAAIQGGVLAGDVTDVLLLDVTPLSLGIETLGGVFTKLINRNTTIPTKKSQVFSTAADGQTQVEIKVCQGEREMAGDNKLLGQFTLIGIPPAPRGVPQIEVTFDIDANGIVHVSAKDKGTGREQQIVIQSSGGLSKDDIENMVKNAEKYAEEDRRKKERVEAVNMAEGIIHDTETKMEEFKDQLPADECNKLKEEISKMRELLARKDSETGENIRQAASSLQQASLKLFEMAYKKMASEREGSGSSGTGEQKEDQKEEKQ
test-protocol: phage ELISA signal ratio (GST-PRM binding over GST background); higher = stronger binding of peptide-phage to the PRM
measured-metric: phage ELISA signal ratio

{"binder": "QVAMSEQSLNYFLTLL", "quantitative-result": 3.89}
{"binder": "PYGLTAEGYERFLWLV", "quantitative-result": 28}
{"binder": "YMMDQHAWELLMTMMA", "quantitative-result": 16.4}
{"binder": "STEFFYDWGYWEQMIE", "quantitative-result": 19.8}
{"binder": "VPWGDAQFSWPVEWMI", "quantitative-result": 8.49}
{"binder": "PTLLLWQQIDQVMMKK", "quantitative-result": 20.8}
{"binder": "TYYLDPFAWEYLQAEY", "quantitative-result": 20.2}
